assay: growth suppression of yeast trafficking mutant, preliminary HTS, modulators of trafficking downstream of Golgi apparatus project, 1536-format plate, OD 615 nm (AID 637); conditions: yeast transport mutant growth, absorbance 615 nm, 18 h; active compounds read high; also: test concentration not given here
A collection of molecules and their measured inhibition
Report the figure in % without appending any unit label.

Answered cases to consult:
[
  {
    "MOLECULE": "Cc1cc(-c2ccc(F)cc2)nc2cc(C(N)=O)nn12",
    "UNIT DESCRIPTOR": "%",
    "TEST RESULT": 17.3
  },
  {
    "MOLECULE": "Cc1nc2sc(C(c3ccc(Br)cc3)N3CC(C)OC(C)C3)c(O)n2n1 (stereo unspecified)",
    "UNIT DESCRIPTOR": "%",
    "TEST RESULT": -3.44
  },
  {
    "MOLECULE": "COc1ccc(C(=O)N(CCN2CCOCC2)CC(=O)NC2CCCC2)cc1OC",
    "UNIT DESCRIPTOR": "%",
    "TEST RESULT": 8.36
  }
]

Could you tell me which inhibition is on file for Cc1ccc2cc(C#N)c(N3CCCC3)nc2c1C ?
-2.33

Let us now turn to Cc1cc(C)cc(NC(=O)CCNS(=O)(=O)c2ccc3c(c2)oc(=O)n3C)c1
1.75

Let us now turn to Cn1c(COc2ccc(Cl)cc2)nnc1SCC(=O)NC1CCCCC1
20.8
